molecular target: Stimulator of interferon genes protein (Homo sapiens, UniProt Q86WV6, G230A/R293Q/R71H); experiment: Activation of full length human STNG R71H/G230A/R293Q mutant expressed in Trichoplusia ni cell membrane incubated for 60 mins followed by addition of [3H]cGAMP by competitive binding assay
Sequence (Q86WV6 whole entry R71H/G230A/R293Q): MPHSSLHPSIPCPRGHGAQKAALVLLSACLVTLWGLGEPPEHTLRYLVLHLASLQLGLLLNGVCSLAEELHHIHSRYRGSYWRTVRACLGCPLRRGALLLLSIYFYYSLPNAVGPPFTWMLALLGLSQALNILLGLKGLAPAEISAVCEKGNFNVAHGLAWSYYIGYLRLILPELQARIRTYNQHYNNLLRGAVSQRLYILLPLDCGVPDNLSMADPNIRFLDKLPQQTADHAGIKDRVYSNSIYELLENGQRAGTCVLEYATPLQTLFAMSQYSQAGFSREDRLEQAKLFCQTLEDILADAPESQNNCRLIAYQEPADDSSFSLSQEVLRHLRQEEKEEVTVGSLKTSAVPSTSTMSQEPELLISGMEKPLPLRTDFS
measure name: EC50 (µM)

Example entries and their recorded answers appear below.
1. CCC(CC(=O)c1cc2nc(OC)c(OC)cc2s1)C(=O)O (stereo unspecified) | 1.75
2. COc1cc2nc(C(=O)CCC(=O)O)sc2cc1OC | 13.3

[a] COc1cc2sc(C(=O)C[C@H](C)C(=O)O)nc2nc1OC
[b] COc1cc2cc(C(=O)CCC(=O)O)sc2nc1OC
Of a and b , which carries the smaller reported EC50 figure? Kindly state the label of the option you pick.
b

[A] COc1cc2sc(C(=O)C[C@H](C)C(=O)O)nc2cc1Br
[B] COc1cc2sc(C(=O)C3CC3C(=O)O)cc2nc1OC (stereo unspecified)
Of A and B , which carries the smaller reported EC50 figure? Kindly state the label of the option you pick.
B
